- measured_target: T1, Quinone oxidoreductase QorA (Escherichia coli K12, UniProt P28304 1-327)
- T1 sequence: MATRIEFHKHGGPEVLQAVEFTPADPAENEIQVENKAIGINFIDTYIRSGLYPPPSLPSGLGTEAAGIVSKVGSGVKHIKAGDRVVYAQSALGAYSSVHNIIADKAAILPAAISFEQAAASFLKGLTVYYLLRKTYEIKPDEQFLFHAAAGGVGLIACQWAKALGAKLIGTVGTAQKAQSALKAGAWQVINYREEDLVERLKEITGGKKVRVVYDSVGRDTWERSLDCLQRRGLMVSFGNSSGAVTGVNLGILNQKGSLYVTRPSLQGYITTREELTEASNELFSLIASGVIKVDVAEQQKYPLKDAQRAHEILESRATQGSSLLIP
- experiment_summary: MST; 0.05% Tween-20; 10 nM RNA; 50 mM Tris (HEPES for PykF), 80 mM NaCl, 10 mM KCl, 0.8 mM MgCl2, 0.5 mM DTT, pH 7.5, 30 min at 37 C (EMSA); MST same buffer + 0.05% Tween-20
- experimental_conditions: protein: recombinant; tags: N-terminal His (pCA24N, ASKA); label: Cy5
reported_endpoint: Kd

Q. Retrieve Kd measured for GGAGCAUAUGGACUUCAGGGAAGGGAU (ssRNA) [Cy5-yffO mRNA fragment] and print it.
A. ~7 µM
